Data origin: ChEMBL document CHEMBL1201862

Some compounds, each annotated with its measured GI50.
Test system: CCRF-CEM
Measurement description: NCI tumour cell line growth inhibition, 48 h
Active and inactive are the calls of the source. Cut-off read from the data, not from the text of the source: active = GI50 up to about 1.1 µM and inactive = higher.

Look over these answered cases.
N#Cc1ccc(Nc2cnc3cc(N)ccc3n2)cc1: 33 µM (inactive)
CCOc1ccc(NC(=O)C(=O)C(C(=O)c2ccc3ccccc3c2)C2OC(=O)c3ccccc32)cc1 (centres undefined): 7.08 µM (inactive)
CC(=O)OC1CCC2(C)C(=CCC3C4CCC5(OC6CC(C)CN(C(C)=O)C6C5C)C(C)=C4C(=O)C32)C1 (centres undefined): > 100 µM (inactive)
O=C1CC2(CCC(O)(c3cccs3)C(C(=O)c3cccs3)C2)C(=O)c2ccccc2N1 (centres undefined): 22.5 µM (inactive)
CCOC(=O)C(C(=O)OCC)=C1NC2(c3ccccc3Nc3ccc(C)cc32)C(C(=O)OC)S1 (centres undefined): 15.1 µM (inactive)

Please give the measured GI50 for this compound: CCCN1CN(C(C(=O)N[C@@H]2C(=O)N3C(C(=O)O)=C(C)CSC23)c2ccc(O)cc2)CSC1=S (some centres undefined)
66.8 µM (inactive)

Given the entry "O=[N+]([O-])c1ccc(N/N=C/CC(O)(C(F)(F)F)C(F)(F)F)c([N+](=O)[O-])c1" , report its measured GI50.
3.99 µM (inactive)

I am curious: what GI50 value has been reported for COc1cc(C2C(Cl)C(=O)N2c2c(C)n(C)n(-c3ccccc3)c2=O)ccc1O (centres undefined) ?
22.7 µM (inactive)

Find the recorded GI50 belonging to "O=[N+]([O-])c1c(F)c(F)c2c(c1F)N(CCCCCl)c1ccccc1S2" and report it.
2.38 µM (inactive)
